test system: SEM cells; assay: cell viability relative to DMSO control; higher = less cytotoxic; conditions: HPLM + 10% dialyzed FBS; 48 h; 0.00702 µM
readout_type: cell viability (%)

INSERT INTO assay_data (smiles_code, measured_on, observed) VALUES
  ('Oc1ccc([C@@H]2Oc3ccc(O)cc3[C@@H]3CCC[C@@H]32)cc1', 'SEM cells', 91.8),
  ('C1CN\2C[C@@H](\N=C2S1)C3=CC=CC=C3', 'SEM cells', 104),
  ('COc1cc2ncnc(Nc3cccc(Cl)c3)c2cc1OC', 'SEM cells', 93.1),
  ('CC(C)Cn1cnc2c(N)nc3ccccc3c21', 'SEM cells', 106),
  ('C=CC(=O)Nc1ccc2ncnc(Nc3ccc(OCc4cccc(F)c4)c(Cl)c3)c2c1', 'SEM cells', 83.9),
  ('COc1cc2ncn(-c3cc(OCc4ccccc4C(F)(F)F)c(C(N)=O)s3)c2cc1OC', 'SEM cells', 116),
  ('CC(C)c1c(C(=O)Nc2ccccc2)c(-c2ccccc2)c(-c2ccc(F)cc2)n1CC[C@@H](O)C[C@@H](O)CC(=O)[O-]', 'SEM cells', 103),
  ('CC(C)n1cnc2c(NCCc3ccc(O)cc3)nc(-c3csc4ccccc34)nc21', 'SEM cells', 99.5),
  ('CO[C@@H]1[C@@H](O)[C@H](O)[C@@H](n2c3c(Cl)cccc3c3c4c(c5c6cccc(Cl)c6[nH]c5c32)C(=O)NC4=O)O[C@H]1CO', 'SEM cells', 105);

---

tested on: SEM cells; assay: cell viability relative to DMSO control; higher = less cytotoxic; settings: HPLM + 10% dialyzed FBS; 48 h; 46.1 µM
Form field: cell viability (one value per entry).
readout_type: cell viability

INSERT INTO measurements (compound, readout_type, observed) VALUES
  ('NCCc1ccc(O)c(O)c1', 'cell viability', '8.51%'),
  ('COc1ccc([S+](=O)([O-])Nc2cccnc2Nc2ccc(O)cc2)cc1', 'cell viability', '21.6%'),
  ('N=C(N)NC(=N)N1CCOCC1', 'cell viability', '112%'),
  ('CC(C)Cn1cnc2c(N)nc3ccccc3c21', 'cell viability', '77.1%'),
  ('C[C@H](NCc1ccc(OCc2cccc(F)c2)cc1)C(N)=O', 'cell viability', '9.65%'),
  ('CCOC(=O)O[C@]1(C(=O)OCCl)CC[C@H]2[C@@H]3CCC4=CC(=O)C=C[C@]4(C)[C@H]3[C@@H](O)C[C@@]21C', 'cell viability', '100%'),
  ('Cc1cccc2c1CC[C@H](CN1CCC(c3c(Cl)cccc3Cl)CC1)C[C@@H]2O', 'cell viability', '79.9%'),
  ('Cc1cccc(-c2[nH]c(C(C)(C)C)nc2-c2ccc3c(c2)OCO3)n1', 'cell viability', '7.86%'),
  ('N=C(N)Nc1ccc(C(=O)Oc2ccc3cc(C(=N)N)ccc3c2)cc1', 'cell viability', '79.2%'),
  ('Nc1nc(NCCNc2ncc(-n3ccnc3)c(-c3ccc(Cl)cc3Cl)n2)ccc1[N+](=O)[O-]', 'cell viability', '107%'),
  ('COC(=O)Nc1nc2ccc([S+]([O-])c3ccccc3)cc2[nH]1 (stereo not drawn)', 'cell viability', '57.7%'),
  ('COC1=CC=C2[N](CCCN(C)C)C=C(C2=C1)C/3=C(/C(=O)NC3=O)C4=C[NH]C5=C4C=CC=C5', 'cell viability', '8.06%'),
  ('Cc1c(C(=O)c2cccc3ccccc23)c2cccc3c2n1[C@H](CN1CCOCC1)CO3', 'cell viability', '4.91%');
